target: BACE1 (HTRF long substrate and FRET short substrate assays of Example 9D); assay: cell-based or functional assay

# Binder, Endpoint Unit, EC50, FRET short substrate
data = [
    ("5643 (antibody, V domains shown) VH: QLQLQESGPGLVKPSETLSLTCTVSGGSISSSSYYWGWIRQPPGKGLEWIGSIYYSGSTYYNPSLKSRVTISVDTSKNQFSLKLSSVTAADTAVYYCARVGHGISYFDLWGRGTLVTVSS VL: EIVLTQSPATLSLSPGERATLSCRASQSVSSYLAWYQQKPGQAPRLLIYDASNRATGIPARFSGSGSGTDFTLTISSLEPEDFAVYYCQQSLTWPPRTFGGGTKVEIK", "nM", 1.41),
]
